# TESTED ON: T1, cynomolgus PDGF (cynomolgus)
# T1 construct: Printed only as cynomolgus PDGF
# ASSAY OVERVIEW: SPR, Fab fragment; assay format for PDGF not described
ATTRIBUTE MEASURED: t½ (min)
Give the value in min but do not write min after it.

Below, each entry is followed by its recorded t½ result.
Would you kindly share the measured t½ for bispecific anti-VEGF/anti-PDGF-B Fab fragment P1AA9124 (Fab, V domains shown) VH: DLQLVESGGGLVKPGGSLRLSCAADGWWFGYTDMSWVRQAPGKGLEWVGSISYKGGSTYYNTKFIGRFTISRDDDTNTLYLQMNSLRAEDTAVYYCARDDGYFDTWGQGTLVTVSS VL: AIQMTQSPSSLSASVGDRVTITCHGSYWLSNYLAWYQQKPGKAPKLLIYDGKEREHGVPSRFSGSGSHEDYTLTISSLQPEDFATYYCQQYRYHPYTFGQGTKLEIKR ?
52

// next record bispecific anti-VEGF/anti-PDGF-B Fab fragment RO7113083 (Fab, V domains shown, also called R07113083) VH: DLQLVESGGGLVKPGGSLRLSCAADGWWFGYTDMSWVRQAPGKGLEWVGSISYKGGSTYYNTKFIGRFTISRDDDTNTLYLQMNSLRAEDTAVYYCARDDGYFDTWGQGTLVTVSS VL: AIYMHQEPSSLSASVGDRVTITCHGSYWLSNYLAWYQQKPGKAPKLLIYDGKEREHGVPSRFSGSGSHEDYTLTISSLQPEDFATYYCQQYRYHPYTFGHGTKVEIKR
53

---
Would you kindly share the measured t½ for bispecific anti-VEGF/anti-PDGF-B Fab fragment 28.01 (Fab, V domains shown) VH: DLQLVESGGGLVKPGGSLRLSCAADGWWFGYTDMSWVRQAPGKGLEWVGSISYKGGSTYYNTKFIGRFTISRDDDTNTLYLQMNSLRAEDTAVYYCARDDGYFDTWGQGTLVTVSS VL: AIHMYQEPSSLSASVGDRVTITCHGSYWLSNYLAWYQQKPGKAPKLLIYDGKEREHGVPSRFSGSGSHEDYTLTISSLQPEDFATYYCQQYRYHPYTFGHGTKVEIKR ?
54
